System: P. falciparum stage V gametocytes
Parameters: BacTiter-Glo ATP luminescence viability of purified stage V gametocytes in 384-well plates, per cent inhibition versus DMSO
Conditions: 48 h, 5 µM; inhibitor
Among all 13,000 compounds or so, about 3,200 (25%) showed an effect of 50% or more. Some of the results follow.
The entries below come with measured % Inhibition values attached.
Property Measured: % Inhibition (%)

{"Compound": "COc1ccc(CNc2nc(NCc3ccc(C(F)(F)F)cc3)c3cc(OC)c(OC)cc3n2)cc1OC", "Recorded Number": 104.7}
{"Compound": "N#Cc1cncc(-c2nc3c(N4CCC(Cc5ccccc5)CC4)cccc3n2CCNCc2ccccc2)c1", "Recorded Number": 51.69}
{"Compound": "COc1cc2nc(NCCn3nc(C)cc3C)nc(NCCc3ccccc3)c2cc1OC", "Recorded Number": 52.48}
{"Compound": "CCn1c(C)cc(C=C2SC(=Nc3ccccc3)NC2=O)c1C", "Recorded Number": -43.68}
{"Compound": "Cc1ccc(NC(C)C(=O)Nc2ccc(C#N)cc2)cc1S(=O)(=O)N1CCCCC1 (stereo not shown)", "Recorded Number": -17.26}
{"Compound": "c1ccc(CNCCn2c(-c3ccc4c(c3)CCO4)nc3c(N4CCCC4)cccc32)cc1", "Recorded Number": 92.48}
{"Compound": "CC[C@H](C)CNC(=O)c1cncc(-c2cccc(CN3CCC(N4CCCC4)CC3)c2)c1", "Recorded Number": 16.8}
{"Compound": "COc1cc2nc(NCCc3ccccc3)nc(NCc3nccs3)c2cc1OC", "Recorded Number": 24.41}
{"Compound": "C=CCOc1ccc(C2C(C(=O)OC)=C(C)NC3=C2C(=O)c2ccccc23)cc1OC (stereo not shown)", "Recorded Number": -17.47}
{"Compound": "COc1ccc2nc(NC3=NC(c4ccccn4)(c4ccccn4)C(=O)N3C)[nH]c2c1", "Recorded Number": 10.34}
{"Compound": "CN(C)c1cccc2c1nc(-c1ccc3c(c1)CCO3)n2CCNCc1ccccc1", "Recorded Number": 5.243}
{"Compound": "CC1CCN(C(=O)CSc2nc(-c3ccc(C(C)C)cc3)no2)CC1", "Recorded Number": 17.92}
{"Compound": "Cc1cc(Oc2ccc(-n3ccnc3)cc2)nc(N2CCN(CCCN3CCCC3)CC2)n1", "Recorded Number": 34.43}
{"Compound": "Oc1ccc(-c2nc3c(N4CCN(Cc5ccccc5)CC4)cccc3n2C2CCNCC2)cc1", "Recorded Number": 4.567}
{"Compound": "COc1cc(Cc2cnc(N)nc2N)cc(OCCCCC2NC(=O)NC2=O)c1OC (stereo not shown)", "Recorded Number": 4.359}
{"Compound": "COc1ccc(CCNc2nc(N)c3cc(OC)c(OC)cc3n2)cc1.Cl", "Recorded Number": 1.23}
{"Compound": "CC(C)c1cccc(OCC2CCN(c3ncc(C(=O)Nc4ccccc4)cc3Cl)CC2)c1", "Recorded Number": 5.5}
{"Compound": "O=c1ccc(CNc2nc(NCCc3ccccc3)nc3ccc(Cl)cc23)c[nH]1", "Recorded Number": 35.37}
{"Compound": "COc1cc2ncnc(Nc3ccc(OCc4ccccc4)c(C(F)(F)F)c3)c2cc1OC", "Recorded Number": 4.607}
{"Compound": "Cc1cc(C=C2SC(=Nc3ccccc3)N(C3CCCC3)C2=O)c(C)n1-c1ccc(Cl)cc1", "Recorded Number": -5.321}
{"Compound": "CCn1cc(C=C2Oc3c(ccc(O)c3CN3CCCCC3)C2=O)c2cc(OC)ccc21", "Recorded Number": 12.33}
{"Compound": "Nc1ncnc2occ(-c3ccc(NC(=O)Nc4cc(C(F)(F)F)ccc4F)cc3)c12", "Recorded Number": 14.45}
{"Compound": "CCc1cc(N2CCN(c3ccccc3F)CC2)nc(SCc2ccc(C(=O)NC3CC3)o2)n1", "Recorded Number": 29.7}
{"Compound": "N#Cc1ccc(-c2nc3c(N4CCCC4)cccc3n2CCNCc2ccccc2)cc1", "Recorded Number": 30.7}
{"Compound": "Cc1cc(C)cc(-n2c(C)cc(/C=C3\\SC(=Nc4ccc(Cl)cc4)NC3=O)c2C)c1", "Recorded Number": 64.96}
{"Compound": "COc1ccc(-n2nc(C)c3c2NC(=O)CC3c2ccccc2OCc2ccccc2F)cc1 (stereo not shown)", "Recorded Number": 2.012}
{"Compound": "NCCCNc1ccc(-c2ccc(NC(=O)Nc3cc(C(F)(F)F)ccc3F)cc2)cn1", "Recorded Number": 53.18}
{"Compound": "Clc1ccc2c(NCCc3ccccc3)ccnc2c1", "Recorded Number": -1.928}
{"Compound": "CN1CCCC1CCNC(=O)[C@H](CC1CCCCC1)NC(=O)c1ccc(O)c(-c2ccc(Cl)c(Cl)c2)c1 (stereo partly shown)", "Recorded Number": 48.17}
{"Compound": "Nc1ncc(-c2ccc(NC(=O)Nc3cc(C(F)(F)F)ccc3F)cc2)c(N)n1", "Recorded Number": 7.471}
{"Compound": "CC(C)CN(C)c1ncnc2c1nc(-c1cncc(C#N)c1)n2CCNCc1ccccc1", "Recorded Number": 12.57}
{"Compound": "COc1cc(Cc2cnc(N)nc2N)cc(OC)c1OCCCCC(=O)O", "Recorded Number": 14.26}
{"Compound": "Nc1nccc2ccc(-c3ccc(NC(=O)Nc4cc(C(F)(F)F)ccc4F)cc3)cc12", "Recorded Number": 80.96}
{"Compound": "Cc1cnc(NCC2CCCCC2)nc1NCC(=O)Nc1ccccc1", "Recorded Number": -41.32}

---

The entries below come with measured % Inhibition values attached.
Tested on: P. falciparum stage V gametocytes
Parameters: BacTiter-Glo ATP luminescence viability of purified stage V gametocytes in 384-well plates, per cent inhibition versus DMSO
Details: 48 h, 5 µM; inhibitor
Screen size: about 13,000 compounds; about 3,200 (25%) showed an effect of 50% or more. The list shows a part of the results.

{"Compound": "N#CC1(CCCNCCc2ccc(O)cc2)CCCc2c(O)cccc21 (stereo not shown) [TCMDC-137732]", "Study Target": "P. falciparum stage V gametocytes", "% Inhibition / %": -11.73}
{"Compound": "CCOc1ccc(-c2nc(NC(=O)COc3ccc(OC)cc3)sc2C)cc1 [TCMDC-124329]", "Study Target": "P. falciparum stage V gametocytes", "% Inhibition / %": 36.75}
{"Compound": "COc1ccc2c(c1CCNCCCCNCCc1c(OC)ccc3c1CCCC3)CCCC2 [TCMDC-137324]", "Study Target": "P. falciparum stage V gametocytes", "% Inhibition / %": 111.7}
{"Compound": "Clc1ccc2c(NCc3ccccc3)ccnc2c1 [TCMDC-125506]", "Study Target": "P. falciparum stage V gametocytes", "% Inhibition / %": -30.27}
{"Compound": "O=C(Nc1cccc(-c2cccc(-c3nc4ccc(C(F)(F)F)cc4[nH]3)c2)c1)c1ccoc1 [TCMDC-136844]", "Study Target": "P. falciparum stage V gametocytes", "% Inhibition / %": 9.594}
{"Compound": "COc1ccc(CC(=O)NC(CCCN2CCC3(CC2)OCc2ccccc23)c2ccc(Cl)c(Cl)c2)cc1 (stereo not shown) [TCMDC-141898]", "Study Target": "P. falciparum stage V gametocytes", "% Inhibition / %": -52.62}
{"Compound": "CCN1CCC(N(Cc2ccc(-c3ccc(C(F)(F)F)cc3)cc2)C(=O)CCCCn2c(CCc3cccc(F)c3F)nc(=O)c3ccccc32)CC1 [TCMDC-141321]", "Study Target": "P. falciparum stage V gametocytes", "% Inhibition / %": 85.03}
{"Compound": "O=C(Nc1cccc(-c2ccc(-c3nc4ccc(C(F)(F)F)cc4[nH]3)cc2)c1)c1ccncc1 [TCMDC-136967]", "Study Target": "P. falciparum stage V gametocytes", "% Inhibition / %": -31.79}
{"Compound": "O=C(Nc1ccc(-c2cccc(-c3nc4ccc(C(F)(F)F)cc4[nH]3)c2)cc1)c1ccncc1 [TCMDC-136964]", "Study Target": "P. falciparum stage V gametocytes", "% Inhibition / %": -22.85}
{"Compound": "Cc1cccc(C(=O)NC(NC(=S)Nc2cc(Cl)ccc2Cl)C(Cl)(Cl)Cl)c1 (stereo not shown) [TCMDC-124254]", "Study Target": "P. falciparum stage V gametocytes", "% Inhibition / %": -20.87}
{"Compound": "CCN(CC)c1ccc2nc(N)nc(N)c2c1 [TCMDC-137860]", "Study Target": "P. falciparum stage V gametocytes", "% Inhibition / %": -57.34}
{"Compound": "O=S(=O)(c1ccc(OC(F)(F)F)cc1)C1CC2CCC(C1)N2S(=O)(=O)c1ccc(Cl)c(C(F)(F)F)c1 (stereo not shown) [TCMDC-134267]", "Study Target": "P. falciparum stage V gametocytes", "% Inhibition / %": 71.42}
{"Compound": "CC(C)(CNCc1ccc(Cl)cc1)c1nc(-c2ccc(Cl)c(O)c2)c(-c2ccncc2)[nH]1 [TCMDC-140548]", "Study Target": "P. falciparum stage V gametocytes", "% Inhibition / %": -50.17}
{"Compound": "COc1ccc(C(=O)NCC(C)(C)c2nc(-c3ccc(Cl)c(O)c3)c(-c3ccncc3)[nH]2)cc1OCCN(C(C)C)C(C)C [TCMDC-140736]", "Study Target": "P. falciparum stage V gametocytes", "% Inhibition / %": 2.982}
{"Compound": "COc1ccc(CNC2CCN(C)CC2)cc1-c1ccc(S(=O)(=O)NCc2ccccc2)s1 [TCMDC-132253]", "Study Target": "P. falciparum stage V gametocytes", "% Inhibition / %": 85.45}
{"Compound": "Cc1ccc(NC(=O)Nc2ccc(S(=O)(=O)c3ccc(NC(=O)Nc4ccc(C)c(Cl)c4)cc3)cc2)cc1Cl [TCMDC-124273]", "Study Target": "P. falciparum stage V gametocytes", "% Inhibition / %": 85.03}
{"Compound": "Oc1ccc(CN2CCN(CCOC(c3ccc(F)cc3)c3ccc(F)cc3)CC2)cc1Cl [TCMDC-135691]", "Study Target": "P. falciparum stage V gametocytes", "% Inhibition / %": 8.088}
{"Compound": "NC(=O)c1cccc(C(=O)Nc2ccc(-c3cccc(-c4nc5ccc(C(F)(F)F)cc5[nH]4)c3)cc2)c1 [TCMDC-132200]", "Study Target": "P. falciparum stage V gametocytes", "% Inhibition / %": -70.46}
{"Compound": "CN1CCc2ccc(NC(=O)Nc3ccc(Cl)c(Cl)c3)cc2C1 [TCMDC-133728]", "Study Target": "P. falciparum stage V gametocytes", "% Inhibition / %": 0.1652}
{"Compound": "CCCCOC(=O)[C@H](CCC)NC(=O)c1ccc(NS(=O)(=O)c2ccc3nc(N)[nH]c(=O)c3c2)cc1 [TCMDC-137698]", "Study Target": "P. falciparum stage V gametocytes", "% Inhibition / %": 14.55}
{"Compound": "Cc1ccc(NC(=O)Nc2ccc(I)c(OCCN(C)C)c2)cc1Cl [TCMDC-139122]", "Study Target": "P. falciparum stage V gametocytes", "% Inhibition / %": -20.44}
{"Compound": "CC(C)(CNCc1cccc(Oc2ccccc2)c1)c1nc(-c2ccc(Cl)c(O)c2)c(-c2ccnc(N)n2)[nH]1 [TCMDC-141167]", "Study Target": "P. falciparum stage V gametocytes", "% Inhibition / %": 23.98}
{"Compound": "COc1ccc(CNC2Cc3ccccc3C2)cc1-c1ccc(S(=O)(=O)NCc2cccnc2)s1 [TCMDC-132260]", "Study Target": "P. falciparum stage V gametocytes", "% Inhibition / %": 33.12}
{"Compound": "CCN(CCNS(C)(=O)=O)c1ccc(N)c(C)c1 [TCMDC-125836]", "Study Target": "P. falciparum stage V gametocytes", "% Inhibition / %": 123.9}
{"Compound": "CCN(CC)CC(O)Cc1c2ccc([N+](=O)[O-])cc2nc2cc(OC)c(OC)cc12 (stereo not shown) [TCMDC-138126]", "Study Target": "P. falciparum stage V gametocytes", "% Inhibition / %": 37.45}
{"Compound": "O=C(Nc1cccc(-c2cccc(-c3nc4ccc(C(F)(F)F)cc4[nH]3)c2)c1)c1cccnc1 [TCMDC-136925]", "Study Target": "P. falciparum stage V gametocytes", "% Inhibition / %": -23.9}
{"Compound": "CCN(CC)CC(O)CNc1c2ccc([N+](=O)[O-])cc2nc2cc(OC)c(OC)cc12.Cl (stereo not shown) [TCMDC-138079]", "Study Target": "P. falciparum stage V gametocytes", "% Inhibition / %": 90.61}
{"Compound": "O=C(Nc1cccc(-c2ccc(-c3nc4ccc(C(F)(F)F)cc4[nH]3)cc2)c1)c1cccnc1 [TCMDC-136930]", "Study Target": "P. falciparum stage V gametocytes", "% Inhibition / %": 51.27}
{"Compound": "O=C(Cn1c(CCc2cccc(F)c2F)nc(=O)c2ccccc21)N(Cc1ccc(-c2ccc(C(F)(F)F)cc2)cc1)C1CCN(C2=NCCS2)CC1 [TCMDC-136537]", "Study Target": "P. falciparum stage V gametocytes", "% Inhibition / %": 107.4}
{"Compound": "O=C(Nc1ccc(-c2cccc(-c3nc4ccc(C(F)(F)F)cc4[nH]3)c2)cc1)c1ccoc1 [TCMDC-136845]", "Study Target": "P. falciparum stage V gametocytes", "% Inhibition / %": 54.13}
{"Compound": "O=C(Nc1cccc(-c2ccc(-c3nc4ccc(C(F)(F)F)cc4[nH]3)cc2)c1)c1ccoc1 [TCMDC-136848]", "Study Target": "P. falciparum stage V gametocytes", "% Inhibition / %": -29.98}

The measured values listed here are drawn from paper PMC4552634.
